- System: SJSA-1 cells (Osteosarcoma)
- assaySummary: In vitro cellular activity in SJSA-1
- Type: cell-based
- conditionDescription: Homo sapiens; SJSA-1, Osteosarcoma; P53 WT; ATM WT; ATR p.L1483F; MDM2 CNV > 3 yes; Avg; read-out: IC50 (uM) Avg
valueKind: IC50 (µM)
One number for each entry, in µM.

Please indicate IC50 recorded for `CCN1[C@@H](C(=O)NC23CCC(C(=O)O)(CC2)CC3)[C@H](c2cccc(Cl)c2F)[C@]2(C(=O)Nc3cc(Cl)ccc32)C12CCCCC2`
0.0495

* * *

- Tested on: ACHN cells (Kidney cancer)
- assaySummary: In vitro cellular activity in ACHN
- Type: cell-based
- conditionDescription: Homo sapiens, P53 WT, ATM p.K1903fs, ATR WT, Test#2, read-out: IC50 (uM) Test#2
valueKind: IC50 (µM)
Numbers only, in µM.

Please indicate IC50 recorded for CCN1[C@@H](C(=O)NC23CCC(C(=O)O)(CC2)CC3)[C@H](c2cccc(Cl)c2F)[C@]2(C(=O)Nc3cc(Cl)ccc32)C12CCCCC2 [Compound C]
0.34

* * *

- Test system: A375 cells (Melanoma)
- assaySummary: In vitro cellular activity in A375
- Type: cell-based
- conditionDescription: Homo sapiens, A-375, P53 WT, ATM WT, ATR WT, Test#1, read-out: IC50 (uM) Test#1
- Experimental: Activity of Compound C is tested in various cancer cell lines with indicated TP53, ATM and ATR genetic status. The activity (IC50 in uM) of Compound C in TP53^WT ATM^WT cell lines versus TP53^WTATR^MUT or TP53^WTATM^MUT cell lines was plotted (Figure. 4, MUT indicated mutant; WT indicated Wild-type).
valueKind: IC50

Please indicate IC50 recorded for `CCN1[C@@H](C(=O)NC23CCC(C(=O)O)(CC2)CC3)[C@H](c2cccc(Cl)c2F)[C@]2(C(=O)Nc3cc(Cl)ccc32)C12CCCCC2`
0.401 µM

* * *

- Test system: A375 cells (Melanoma)
- assaySummary: In vitro cellular activity in A375
- Type: cell-based
- conditionDescription: Homo sapiens, A-375, P53 WT, ATM WT, ATR WT, Avg, read-out: IC50 (uM) Avg
valueKind: IC50
Remember to put the unit after the number in your answer.

Please indicate IC50 recorded for CCN1[C@@H](C(=O)NC23CCC(C(=O)O)(CC2)CC3)[C@H](c2cccc(Cl)c2F)[C@]2(C(=O)Nc3cc(Cl)ccc32)C12CCCCC2 [Compound C]
0.263 µM

* * *

- Test system: MOLT-4 cells (Leukemia)
- assaySummary: In vitro cellular activity in MOLT-4
- Format: cell-based
- conditionDescription: Homo sapiens; MOLT-4, Leukemia; P53 WT; ATM p.S2165F, p.G2919G; ATR WT; Test#1; read-out: IC50 (uM) Test#1
valueKind: IC50
Remember to put the unit after the number in your answer.

Please indicate IC50 recorded for `CCN1[C@@H](C(=O)NC23CCC(C(=O)O)(CC2)CC3)[C@H](c2cccc(Cl)c2F)[C@]2(C(=O)Nc3cc(Cl)ccc32)C12CCCCC2`
0.064 µM
